SYSTEM NAME: human GPC3 on cells (human, UniProt P51654 25-554)
EXPERIMENT SUMMARY: cell-based or functional assay
Exam item: assign t to entries whose EC50 of ADCC cytotoxicity (primary NK cells, LDH), HEPG2 cells is below 0.1 nM and f to entries at or above 0.1 nM. Note that a value of exactly 0.1 nM receives f.

Answered cases to consult:
[
  {
    "BINDER": "52H5D3B8-6#-VH2+VL3 (antibody, V domains shown, humanized) VH: QVQLVQSGAEVKKPGASVKVSCKASGYTFTDYEMHWVRQAPGQGLEWIGAIHPGSGGTAYNQKFKGRVTMTADTSTSTVYMELSSLRSEDTAVYYCTRYYSYAYWGQGTLVTVSS VL: DIVMTQTPLSLSVTPGQPASISCRSSQSLVHSNGNTYLQWYLQKPGQSPKLLIYKVSNRFSGVPDRFSGSGSGTDFTLKISRVEAEDVGVYYCFQSIHVPYTFGGGTKLEIK",
    "ASSIGNED CATEGORY": "f"
  },
  {
    "BINDER": "52H5D3B8-20#-VH2+VL3 (antibody, V domains shown) VH: QVQLVQSGAEVKKPGASVKVSCKASGYRFTDYEMHWVRQAPGQGLEWIGAIHPGSGGTAYNQLFKGRVTMTADTSTSTVYMELSSLRSEDTAVYYCTRYYSYAYWGQGTLVTVSS VL: DIVMTQTPLSLSVTPGQPASISCRSSQSLVHSNGNTYLQWYLQKPGQSPKLLIYKVSNRFPGVPDRFSGSGSGTDFTLKISRVEAEDVGVYYCVESIHVPYTFGGGTKLEIK",
    "ASSIGNED CATEGORY": "f"
  },
  {
    "BINDER": "52H5D3B8-18#-VH2+VL3 (antibody, V domains shown) VH: QVQLVQSGAEVKKPGASVKVSCKASGYTFTRYEMHWVRQAPGQGLEWIGAIHPGSGGTAYNSKFKGRVTMTADTSTSTVYMELSSLRSEDTAVYYCTRYYSYAYWGQGTLVTVSS VL: DIVMTQTPLSLSVTPGQPASISCRSSQSLVHSNGNTYLQWYLQKPGQSPKLLIYKVSNRYSGVPDRFSGSGSGTDFTLKISRVEAEDVGVYYCVESIHVPYTFGGGTKLEIK",
    "ASSIGNED CATEGORY": "f"
  }
]

*Q* Decide: EC50 of ADCC cytotoxicity (primary NK cells, LDH), HEPG2 cells of 52H5D3B8-6#-VH1+VL1 (antibody, V domains shown, humanized) VH: QVQLVQSGAEVKKPGASVKVSCKASGYTFTDYEMHWVRQAPGQGLEWMGAIHPGSGGTAYNQKFKGRVTMTRDTSTSTVYMELSSLRSEDTAVYYCARYYSYAYWGQGTLVTVSS VL: DIVMTQTPLSLSVTPGQPASISCRSSQSLVHSNGNTYLQWYLQKPGQSPQLLIYKVSNRFSGVPDRFSGSGSGTDFTLKISRVEAEDVGVYYCFQSIHVPYTFGGGTKLEIK strictly below 0.1 nM?
*A* t

*Q* Decide: EC50 of ADCC cytotoxicity (primary NK cells, LDH), HEPG2 cells of 52H5D3B8-19#-VH2+VL3 (antibody, V domains shown) VH: QVQLVQSGAEVKKPGASVKVSCKASGYTFTGYEMHWVRQAPGQGLEWIGAIHPGSGGTAYNQKFKGRVTMTADTSTSTVYMELSSLRSEDTAVYYCTRYYSYAYWGQGTLVTVSS VL: DIVMTQTPLSLSVTPGQPASISCRSSQSLVHSNGNTYLQWYLQKPGQSPKLLIYKVSNRFAGVPDRFSGSGSGTDFTLKISRVEAEDVGVYYCVESIHVPYTFGGGTKLEIK strictly below 0.1 nM?
*A* t
